B1: library; numbered along this chain (parent)
chain: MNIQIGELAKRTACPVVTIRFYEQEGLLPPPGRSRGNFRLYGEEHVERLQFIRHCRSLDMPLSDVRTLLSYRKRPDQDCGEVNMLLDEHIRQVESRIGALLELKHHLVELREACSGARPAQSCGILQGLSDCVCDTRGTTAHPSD

Variants of: B1
Assay: sfGFP reporter fluorescence (15 h) (µM FITC); higher = higher leak
Conditions: library round: Round 0; ligand: none
Measure Name: sfGFP reporter fluorescence
Write the value as a bare number.

Mutation Annotation	sfGFP reporter fluorescence
V82A	0.0605

Entry G128D has what sfGFP reporter fluorescence?
0.0603

Next up: K104Q
0.0601

Next up: I90Y
0.0608

Next up: Y41A
0.0616

Next up: C55R
0.0596

Next up: C114D
0.0585
